Just for reference, patent US10947242B2 is where these values come from.

targetOrTestSystem: PDE2A (Rattus norvegicus, UniProt Q01062)
Construct: Twenty μm-thick striatal sections were cut; from tissue; host or cells: rat brain, striatal sections
Sequence (Q01062 whole entry): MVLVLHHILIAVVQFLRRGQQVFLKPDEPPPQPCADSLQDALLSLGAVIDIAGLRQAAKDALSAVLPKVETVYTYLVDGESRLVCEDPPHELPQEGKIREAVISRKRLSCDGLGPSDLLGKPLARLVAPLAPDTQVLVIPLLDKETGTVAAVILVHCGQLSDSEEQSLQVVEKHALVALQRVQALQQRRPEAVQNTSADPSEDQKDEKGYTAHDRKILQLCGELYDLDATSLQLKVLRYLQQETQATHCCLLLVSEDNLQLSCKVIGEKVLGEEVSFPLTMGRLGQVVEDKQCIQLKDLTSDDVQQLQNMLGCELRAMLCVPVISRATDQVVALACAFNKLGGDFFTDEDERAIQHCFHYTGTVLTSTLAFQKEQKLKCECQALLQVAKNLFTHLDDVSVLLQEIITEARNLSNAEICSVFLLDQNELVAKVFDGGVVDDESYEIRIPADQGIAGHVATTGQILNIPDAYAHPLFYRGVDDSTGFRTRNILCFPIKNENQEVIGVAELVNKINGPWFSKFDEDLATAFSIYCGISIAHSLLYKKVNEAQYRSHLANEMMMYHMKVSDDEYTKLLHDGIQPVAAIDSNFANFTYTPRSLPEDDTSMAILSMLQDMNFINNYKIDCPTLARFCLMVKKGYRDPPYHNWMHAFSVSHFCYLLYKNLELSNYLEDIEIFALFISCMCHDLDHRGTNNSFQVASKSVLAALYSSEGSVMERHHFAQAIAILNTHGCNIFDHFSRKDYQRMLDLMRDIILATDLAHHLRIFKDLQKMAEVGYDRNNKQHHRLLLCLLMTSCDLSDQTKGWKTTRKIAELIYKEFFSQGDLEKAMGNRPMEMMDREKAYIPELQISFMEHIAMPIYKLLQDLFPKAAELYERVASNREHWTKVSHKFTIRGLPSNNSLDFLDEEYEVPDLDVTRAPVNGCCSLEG
procedureSummary: PDE2 occupancy by test compounds, ex-vivo autoradiography with [3H]B-17a
Assay type: in vivo, Male Wistar rats
conditionParameters: po, 10 mg/kg, route PO (oral), percentage receptor occupancy, ex-vivo autoradiography, striatum
testReadout: receptor occupancy at 10 mg/kg
Entry format: amount then unit.

Below, 3 molecules whose answers are already recorded.
| smilesText | targetOrTestSystem | receptor occupancy at 10 mg/kg |
| --- | --- | --- |
| Cc1cc([C@@H]2CN(C(=O)c3cc(C)c(C)cn3)CC[C@H]2C)n2ncnc2n1 | PDE2A (Rattus norvegicus, UniProt Q01062) | 0% |
| C[C@@H]1CCN(C(=O)c2cc(C3CC3)ncc2F)C[C@@]1(F)c1cc(C(F)F)nc2ncnn12 | PDE2A (Rattus norvegicus, UniProt Q01062) | -4% |
| COc1cc(C(=O)N2CC[C@@H](C)[C@H](c3cc(C(F)F)nc4ncnn34)C2)cc(Cl)n1 | PDE2A (Rattus norvegicus, UniProt Q01062) | 65% |

Challenge: Fill in: receptor occupancy at 10 mg/kg of Cc1cc(C(=O)N2CC[C@@H](C)[C@H](c3cc(C(F)F)nc4ncnn34)C2)cc(C2CC2)n1 is ___
Response given: 85%

Challenge: What do you have for Cc1nc(C(=O)N2CC[C@H](C)[C@H](c3cc(C(F)F)nc4ncnn34)C2)ccc1F ?
Response given: 19%

Challenge: What do you have for COc1nc(C)cc(C(=O)N2CC[C@@H](C)[C@H](c3cc(C(F)F)nc4ncnn34)C2)c1F ?
Response given: 47%

* * *

targetOrTestSystem: Human recombinant PDE2A (hPDE2A) (Homo sapiens, UniProt O00408)
Construct: His tag (inferred from metal chelate purification); made in house; host or cells: Sf9 insect cells (baculovirus)
Sequence (O00408 whole entry): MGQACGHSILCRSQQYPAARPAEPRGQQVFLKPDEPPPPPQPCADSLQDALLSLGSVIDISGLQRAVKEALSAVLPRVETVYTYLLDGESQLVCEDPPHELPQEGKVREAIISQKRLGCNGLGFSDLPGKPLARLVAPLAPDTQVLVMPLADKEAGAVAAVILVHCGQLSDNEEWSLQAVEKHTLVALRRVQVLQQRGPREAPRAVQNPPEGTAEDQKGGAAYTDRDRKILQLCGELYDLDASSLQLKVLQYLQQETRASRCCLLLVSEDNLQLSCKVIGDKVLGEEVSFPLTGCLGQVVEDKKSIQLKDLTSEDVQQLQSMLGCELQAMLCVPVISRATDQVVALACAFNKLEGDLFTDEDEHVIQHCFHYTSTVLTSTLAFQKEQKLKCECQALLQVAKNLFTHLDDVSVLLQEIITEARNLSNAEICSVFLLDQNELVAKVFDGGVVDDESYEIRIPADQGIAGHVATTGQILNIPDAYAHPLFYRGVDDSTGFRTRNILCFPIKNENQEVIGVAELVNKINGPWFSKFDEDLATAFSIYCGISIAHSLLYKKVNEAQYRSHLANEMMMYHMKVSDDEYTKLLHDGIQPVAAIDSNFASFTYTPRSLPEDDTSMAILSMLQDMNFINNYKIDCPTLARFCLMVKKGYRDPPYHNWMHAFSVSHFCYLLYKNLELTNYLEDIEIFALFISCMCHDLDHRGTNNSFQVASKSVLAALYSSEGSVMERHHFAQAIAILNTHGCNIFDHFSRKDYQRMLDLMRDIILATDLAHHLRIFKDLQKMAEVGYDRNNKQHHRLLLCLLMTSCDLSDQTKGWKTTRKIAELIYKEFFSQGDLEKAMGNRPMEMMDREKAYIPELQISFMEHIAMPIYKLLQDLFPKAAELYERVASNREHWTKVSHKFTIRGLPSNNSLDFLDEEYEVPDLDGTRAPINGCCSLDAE
procedureSummary: In vitro assay PDE2A (SPA, 3H-cGMP hydrolysis)
Format: biochemical
conditionParameters: read-out: hPDE2A Emax
testReadout: Emax (%)
Form entry: value (%) — number only.

| compound | testReadout | observedValue |
| --- | --- | --- |
| O=C(c1ccc(Cl)s1)N1[C@H]2CC[C@H](c3cc(C(F)F)nc4ncnn34)[C@@H]1CC2 | Emax | 99 |

Challenge: Fill in: Emax of Cc1cc(C(=O)N2CC[C@@H](C)[C@H](c3cc(C(F)F)nc4ncnn34)C2)no1 is ___
Response given: 99

Challenge: What do you have for C[C@@H]1CCN(C(=O)c2cnccn2)C[C@H]1c1cc(C(F)F)nc2ncnn12 ?
Response given: 95

* * *

Below is a list of entries, each paired with its recorded Emax value.
targetOrTestSystem: Human recombinant PDE3A (hPDE3A) (Homo sapiens, UniProt Q14432)
Construct: purchased Scottish Biomedical; host or cells: Sf9 insect cells
Sequence (Q14432 whole entry): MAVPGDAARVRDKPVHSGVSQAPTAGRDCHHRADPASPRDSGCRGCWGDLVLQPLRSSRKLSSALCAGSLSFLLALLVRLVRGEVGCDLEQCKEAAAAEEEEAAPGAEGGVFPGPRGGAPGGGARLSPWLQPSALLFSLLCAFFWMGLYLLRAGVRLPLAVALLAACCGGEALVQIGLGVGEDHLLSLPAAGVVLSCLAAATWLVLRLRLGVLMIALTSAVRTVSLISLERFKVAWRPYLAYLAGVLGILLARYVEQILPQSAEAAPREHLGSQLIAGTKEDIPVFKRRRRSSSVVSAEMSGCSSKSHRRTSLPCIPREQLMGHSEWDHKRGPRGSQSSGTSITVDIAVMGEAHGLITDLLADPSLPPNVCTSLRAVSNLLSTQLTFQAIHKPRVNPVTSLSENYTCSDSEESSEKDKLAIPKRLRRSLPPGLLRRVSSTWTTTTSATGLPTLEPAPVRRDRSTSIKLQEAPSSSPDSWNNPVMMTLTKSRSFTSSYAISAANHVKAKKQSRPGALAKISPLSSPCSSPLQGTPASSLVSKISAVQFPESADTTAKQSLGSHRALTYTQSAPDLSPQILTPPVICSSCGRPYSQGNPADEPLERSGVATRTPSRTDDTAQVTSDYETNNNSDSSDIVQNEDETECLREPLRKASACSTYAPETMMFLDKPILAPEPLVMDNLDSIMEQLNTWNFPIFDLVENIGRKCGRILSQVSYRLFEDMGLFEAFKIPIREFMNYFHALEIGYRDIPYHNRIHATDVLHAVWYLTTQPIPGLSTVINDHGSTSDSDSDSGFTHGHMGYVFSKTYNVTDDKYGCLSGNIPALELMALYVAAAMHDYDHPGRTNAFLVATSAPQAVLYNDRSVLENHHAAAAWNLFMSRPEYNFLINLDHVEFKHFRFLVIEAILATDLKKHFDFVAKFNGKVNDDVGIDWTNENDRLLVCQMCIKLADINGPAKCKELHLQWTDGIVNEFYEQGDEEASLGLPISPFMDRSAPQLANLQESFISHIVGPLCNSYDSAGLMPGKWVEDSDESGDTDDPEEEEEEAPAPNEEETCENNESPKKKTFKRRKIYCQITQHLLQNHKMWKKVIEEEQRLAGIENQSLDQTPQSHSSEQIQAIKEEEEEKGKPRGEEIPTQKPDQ
procedureSummary: In vitro assay PDE3A (SPA, 3H-cAMP hydrolysis);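 also: the method names PDE3A and the table heading PDE3B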
Type: biochemical
conditionParameters: read-out: hPDE3B Emax; read-out: Emax

| molecule | targetOrTestSystem | observedValue |
| --- | --- | --- |
| Cc1cc([C@@H]2CN(C(=O)c3cc(C4CC4)ncc3C3CC3)CC[C@H]2C)n2ncnc2n1 [Compound 390] | Human recombinant PDE3A (hPDE3A) (Homo sapiens, UniProt Q14432) | 84% |
| C[C@@H]1CCN(C(=O)c2ccc3cnccc3c2)C[C@H]1c1cc(C(F)F)nc2ncnn12 [Compound 326] | Human recombinant PDE3A (hPDE3A) (Homo sapiens, UniProt Q14432) | 97% |
| C[C@@H]1CCN(C(=O)c2ccc(O)c(F)c2)C[C@H]1c1cc(C(F)F)nc2ncnn12 [Compound 168] | Human recombinant PDE3A (hPDE3A) (Homo sapiens, UniProt Q14432) | 66% |
| Cc1ccc(C(=O)N2CC[C@@H](C)[C@H](c3cc(C(F)F)nc4ncnn34)C2)nc1C [Compound 85] | Human recombinant PDE3A (hPDE3A) (Homo sapiens, UniProt Q14432) | 37% |
| COc1cc(C(=O)N2[C@H]3CC[C@H](c4cc(C(F)F)nc5ncnn45)[C@@H]2CC3)ccc1Cl [Compound 336] | Human recombinant PDE3A (hPDE3A) (Homo sapiens, UniProt Q14432) | 78% |

Challenge: Fill in: Emax of CC(C)Oc1cc(C(=O)N2CC[C@@H](C)[C@H](c3cc(C(F)F)nc4ncnn34)C2)cc(C(C)C)c1 [Compound 144] is ___
Response given: 86%

Challenge: What do you have for C[C@@H]1CCN(C(=O)c2ccc(Cl)c(C(F)(F)F)c2)C[C@H]1c1cc(C(F)F)nc2ncnn12 [Compound 169] ?
Response given: 82%

Challenge: What do you have for C[C@@H]1CCN(C(=O)c2ccc3ccccc3n2)C[C@H]1c1cc(C(F)F)nc2ncnn12 [Compound 323] ?
Response given: 95%

Challenge: What do you have for COc1cc(C(=O)N2CC[C@@H](C)[C@H](c3cc(C(F)F)nc4ncnn34)C2)cc(C2CC2)n1 [Compound 113] ?
Response given: 88%

Challenge: What do you have for Cc1cc([C@@H]2CN(C(=O)c3ccnc(Cl)c3)CC[C@H]2C)n2ncnc2n1 [Compound 15] ?
Response given: 54%

Challenge: What do you have for Cc1cnc(C(=O)N2CC[C@@H](C)[C@H](c3cc(C(F)F)nc4ncnn34)C2)cn1 [Compound 232] ?
Response given: 31%
